- protocol: aqueous kinetic solubility
- Format: physicochemical
- condition description: pH-buffered aqueous solution, aqueous buffer, kinetic from dmso stock; across a range of pH
measured parameter: solubility kinetic

Task: Which solubility kinetic value belongs to COc1ccc2c(c1)CCC1C2CC[C@@]2(C)C1CC[C@H]2NCc1cc2ccccc2cc1O (stereo partly shown) ?
Output: < 2.3 µM

====

# pKd annotations
- tested target: haem (FeIIIPPIX, π-π dimer)
- protocol: spectrophotometric titration of haematin π-π dimer
- condition description: absorption spectrophotometric titration, pH 7.5; read-out: Dissociation Constant KD of haematin-drug complex
Scale: pKd equals -log10([C]), with [C] in mol/L.

compound="CCN(CC)CCCC(C)Nc1ccnc2cc(Cl)ccc12 (stereo not drawn) [chloroquine]" result_value=5.89
compound="COc1ccc2c(c1)CCC1C2CC[C@@]2(C)C1CC[C@H]2NCc1cc2ccccc2cc1O (stereo partly drawn) [1o]" result_value=5.48

Now look at this entry.
Task: Which pKd value belongs to COc1ccc2c(c1)CCC1C2CC[C@@]2(C)C1CC[C@@H]2NCc1cc2ccccc2cc1O (stereo partly drawn) [2o] ?
Output: 5.08

====

- Tested on: K-562
- protocol: antiproliferative activity on K-562 cells
- Format: cell-based
- condition description: Homo sapiens, K562, 72 h
measured parameter: GI50 (nM)
State the answer as a number, implicitly in nM.

molecule="COc1ccc2c(c1)CCC1C2CC[C@@]2(C)C1CC[C@H]2NCc1cc2ccccc2cc1O (stereo partly drawn) [1o]" result_value=5000
molecule="CC(C)CCC[C@@H](C)[C@H]1CCC2C3CCC4C[C@@H](O)[C@@H](O)[C@H](NCc5ccccc5O)[C@]4(C)C3CC[C@@]21C (stereo partly drawn) [12c]" result_value=16500
molecule="COc1ccc2c(c1)CCC1C2CC[C@@]2(C)C1CC[C@H]2NCc1ccccc1O (stereo partly drawn) [1c]" result_value=5900
molecule="COc1ccc2c(c1)CCC1C2CC[C@]2(C)C1C[C@H](NCc1ccccc1O)[C@@H]2O (stereo partly drawn) [11c]" result_value=100

Task: Which GI50 value belongs to COc1ccc2c(c1)CCC1C2CC[C@@]2(C)C1CC[C@@H]2NCc1cc2ccccc2cc1O (stereo partly drawn) [2o] ?
Output: 2500

Task: Thanks! And COc1ccc2c(c1)CCC1C2CC[C@]2(C)C1C[C@@H](NCc1ccccc1O)[C@@H]2O (stereo partly drawn) [10c] ?
Output: 2500

Task: Thanks! And COc1ccc2c(c1)CCC1C2CC[C@@]2(C)C1CC[C@@H]2NCc1ccccc1O (stereo partly drawn) [2c] ?
Output: 5100

Task: Thanks! And COc1ccc2c(c1)CCC1C2CC[C@@]2(C)C1CC[C@@H]2N(CCCn1ccnc1)CCc1ccccn1 (stereo partly drawn) [STS 948] ?
Output: 6600

Task: Thanks! And COc1ccc2c(c1)CCC1C2CC[C@@]2(C)C1C[C@@H](NCc1ccccc1O)[C@H]2O (stereo partly drawn) [5c] ?
Output: 2000

Task: Thanks! And COc1ccc2c(c1)CCC1C2CC[C@@]2(C)C1C[C@H](NCc1ccccc1O)[C@@H]2O (stereo partly drawn) [8c] ?
Output: 500

Task: Thanks! And COc1ccc2c(c1)CCC1C2CC[C@@]2(C)C1C[C@H](NCc1ccccc1O)[C@H]2O (stereo partly drawn) [6c] ?
Output: 2500

Task: Thanks! And COc1ccc2c(c1)CCC1C2CC[C@]2(C)C[C@@H](NCc3ccccc3O)CC12 (stereo partly drawn) [4c] ?
Output: 2600

====

# GI50 annotations
- System: HUVEC
- protocol: antiproliferative activity on HUVEC cells
- Type: cell-based
- condition description: Homo sapiens, HUVEC, 72 h
- Method: Compounds were tested for their antiproliferative activity on HUVEC and K-562 cells and for cytotoxicity on HeLa cells using standard protocols. K-562 (DSM ACC 10), HUVEC (ATCC CRL-1730), and HeLa (DSM ACC 57) cells were cultured as described previously. […] Suspension cultures of K-562 in microplates were analysed by an electronic cell analyzer system CASY 1 (SCHÄRFE, Reutlingen, Germany). […] The optical densities were measured at 660 nm in a microplate reader. […]
Please answer using a numeric value trailed by its unit.

compound="COc1ccc2c(c1)CCC1C2CC[C@@]2(C)C1CC[C@@H]2NCc1cc2ccccc2cc1O (stereo partly shown)" result_value="13.8 µM"

Task: Which GI50 value belongs to COc1ccc2c(c1)CCC1C2CC[C@@]2(C)C1C[C@@H](NCc1ccccc1O)[C@@H]2O (stereo partly shown) ?
Output: 1.2 µM

Task: Thanks! And COc1ccc2c(c1)CCC1C2CC[C@@]2(C)C1CC[C@@H]2N(CCCn1ccnc1)CCc1ccccn1 (stereo partly shown) ?
Output: 7.2 µM

Task: Thanks! And COc1ccc2c(c1)CCC1C2CC[C@]2(C)C[C@@H](NCc3ccccc3O)CC12 (stereo partly shown) ?
Output: 3.1 µM

====

- System: P. falciparum (strain 3D7)
- protocol: 72 h 3H-hypoxanthine incorporation assay, asexual blood stages
- Format: cell-based, Plasmodium falciparum
- condition description: Plasmodium falciparum, 3D7, 72 h 3H-hypoxanthine incorporation, asexual blood stages; read-out: Antiplasmodial activity IC50 Pf (3D7)
# IC50 annotations

molecule="COc1ccc2c(c1)CCC1C2CC[C@]2(C)C[C@H](N)CC12 (stereo partly drawn)" result_value="> 1000 nM"
molecule="COc1ccc2c(c1)CCC1C2CC[C@@]2(C)C1CC[C@H]2N (stereo partly drawn)" result_value="> 1000 nM"

Task: Which IC50 value belongs to COc1ccc2c(c1)CCC1C2CC[C@@]2(C)C1CC[C@H]2NCc1cc2ccccc2cc1O (stereo partly drawn) ?
Output: ~5 nM

Reference source: paper PMC5321741
